test system: Staphylococcus aureus; experiment: Antibacterial activity against Staphylococcus aureus RN4220 by twofold agar dilution method; assay type: functional
Would you kindly list MIC for each of these molecules?
Give bare numbers, in µg/mL.

input: Given "NC[C@@H]1CC[C@@H](N)[C@@H](O[C@H]2[C@H](O)[C@@H](O)[C@H](N)C[C@@H]2N)O1" , state its recorded MIC.
output: 16

Value sought for every listed molecule: MIC.
1. NCCCNC(=O)O[C@@H]1[C@@H](O)[C@H](NC(=O)[C@@H](O)CCN)C[C@H](N)[C@H]1O[C@H]1O[C@H](CN)CC[C@H]1N
2. NCC[C@H](O)C(=O)N[C@@H]1C[C@H](N)[C@@H](O[C@H]2O[C@H](CN)CC[C@H]2N)[C@H](O)[C@H]1O[C@H]1O[C@H](CO)[C@@H](O)[C@H](N)[C@H]1O
3. CN[C@@H]1[C@@H](O)[C@@H](O[C@@H]2[C@@H](O)[C@H](O[C@H]3O[C@H](C(C)N)CC[C@H]3N)[C@@H](N)C[C@H]2N)OC[C@]1(C)O (stereo partly specified)
4. NCCCNC(=O)O[C@@H]1[C@@H](O)[C@H](O[C@H]2O[C@H](CN)CC[C@H]2N)[C@@H](N)C[C@H]1NC(=O)[C@@H](O)CCN
5. NCC[C@H](O)C(=O)N[C@@H]1C[C@H](N)[C@@H](O[C@H]2O[C@H](CN)CC[C@H]2N)[C@H](O)[C@H]1O

output:
1: 16; 2: 0.5; 3: 0.25; 4: 16; 5: 4
